Data provenance is patent US6881719B2.

# target_or_test_system: human TrkA expressed on transfected cells (4-3.6 cells; NIH3T3-TrkA cells) (human) (UniProt P04629)
# Sequence (P04629 33-796): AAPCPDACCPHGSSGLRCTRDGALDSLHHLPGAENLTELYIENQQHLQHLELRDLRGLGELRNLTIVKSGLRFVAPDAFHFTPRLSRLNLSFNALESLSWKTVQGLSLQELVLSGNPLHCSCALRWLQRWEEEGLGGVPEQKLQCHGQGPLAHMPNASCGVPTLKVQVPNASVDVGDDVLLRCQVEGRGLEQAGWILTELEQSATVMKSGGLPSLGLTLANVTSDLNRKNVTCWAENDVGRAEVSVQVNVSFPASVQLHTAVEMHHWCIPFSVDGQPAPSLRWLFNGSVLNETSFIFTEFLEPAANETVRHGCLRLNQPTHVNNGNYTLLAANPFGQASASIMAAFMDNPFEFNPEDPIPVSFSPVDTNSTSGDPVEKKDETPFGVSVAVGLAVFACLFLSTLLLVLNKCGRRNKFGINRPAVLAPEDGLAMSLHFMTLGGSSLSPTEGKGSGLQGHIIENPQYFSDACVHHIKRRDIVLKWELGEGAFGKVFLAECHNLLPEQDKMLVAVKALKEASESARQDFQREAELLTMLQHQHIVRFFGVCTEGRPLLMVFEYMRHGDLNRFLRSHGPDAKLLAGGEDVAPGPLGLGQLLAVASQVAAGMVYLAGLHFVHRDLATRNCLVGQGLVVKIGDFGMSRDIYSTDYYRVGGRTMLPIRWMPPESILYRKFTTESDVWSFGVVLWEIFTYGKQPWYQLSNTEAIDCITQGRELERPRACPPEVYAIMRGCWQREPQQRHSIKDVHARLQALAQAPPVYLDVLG
# assay: estimated from FACScan competition against mAb 5C3 on 4-3.6 cells
Positions of bridges follow the written chain, without caps; N, C: chain ends. Non-standard residues stand in square brackets, D forms with d. 5‑nitrobenzoyl = N-terminal 5-nitrobenzoyl group, introduced by coupling 2-fluoro-5-nitrobenzoyl chloride; hSer = N[C@@H](CCO)C(=O)O
readout_type: Kd

In plain terms, {5‑nitrobenzoyl}-EK[hSer]G-OH (bridge N-3) [D3 (EKHse-G-OH), β-turn peptidomimetic cyclic compound] has a documented Kd of 2 µM
